assay: in vitro; settings: both, human, plasma, Mean fu, fraction unbound in human plasma, ultracentrifugation; some values based on eLOQ
Kind request: treat 0.03 as inclusive, so fraction unbound at 0.03 or higher is satisfied, anything lower is not satisfied.

The examples below pair each entry with its known result.
[[record]]
molecule = "FC(F)(I)C(F)(F)C(F)(F)C(F)(F)C(F)(F)C(F)(F)I"
group = "not satisfied"

[[record]]
molecule = "OCCCC(F)(F)C(F)(F)C(F)(F)F"
group = "satisfied"

[[record]]
molecule = "O=C(CC(=O)C(F)(F)C(F)(F)C(F)(F)F)c1cccs1"
group = "not satisfied"


Query string: API: above_or_equal(metric=fraction unbound, cutoff=0.03) for item Cc1ccc(S(=O)(=O)OCC(F)(F)C(F)(F)C(F)(F)C(F)(F)C(F)(F)C(F)F)cc1
Result string: not satisfied

Query string: Check the entry NC(=O)C(F)(F)C(F)(F)C(F)(F)C(F)(F)F [Nonafluoropentanamide] : does fraction unbound equal or exceed 0.03?
Result string: satisfied

Query string: Is reported fraction unbound greater than or equal to 0.03 here: NC(=O)C(F)(F)C(F)(F)C(F)(F)C(F)(F)C(N)=O [Octafluoroadipamide]
Result string: satisfied

Query string: Please indicate if the recorded fraction unbound for FC(F)(I)C(F)(F)C(F)(F)C(F)(F)I meets or exceeds 0.03.
Result string: not satisfied

* * *

Form field: Mean Stability (one value per entry).
system: human plasma; test: Chemical stability in plasma over the UC assay time course (T5hr/T1hr); settings: mean T5hr/T1hr ratio in plasma over all replicates/runs
// keep it numeric: no unit symbol after the value

Here are 2 molecules together with their reported answers.
[[record]]
molecule = "OCC(F)(F)C(F)(F)C(F)(F)C(F)(F)C(F)(F)C(F)(F)C(F)(F)C(F)(F)C(F)(F)C(F)(F)C(F)(F)F"
measured_number = 0.909

[[record]]
molecule = "OCC(F)(F)C(F)(F)C(F)(F)C(F)(F)C(F)(F)C(F)(F)C(F)(F)C(F)(F)CO [1H,1H,10H,10H-Perfluorodecane-1,10-diol]"
measured_number = 0.657


# ---- query molecule ----
molecule OCCC(F)(F)C(F)(F)C(F)(F)C(F)(F)C(F)(F)C(F)(F)F , Mean Stability observed: 0.895

* * *

Listing of recorded CLint by entry.
assay: In vitro-in vivo extrapolation (IVIVE) to Css and administered equivalent dose (AED); design: species or system human; details: scaled with HPGL 110 mill cells/g, Vl 1596 g
Express the result in µL/min but write the number alone.

Answered examples (6):
[[record]]
molecule = "NC(=O)C(F)(F)C(F)(F)C(F)(F)F [Heptafluorobutyramide]"
measured_number = 3502422

[[record]]
molecule = "OCC(F)(F)C(F)(F)C(F)(F)C(F)(F)C(F)(F)C(F)(F)C(F)(F)C(F)(F)CO [1H,1H,10H,10H-Perfluorodecane-1,10-diol]"
measured_number = 8753422

[[record]]
molecule = "N.O=C(O)C(F)(F)C(F)(F)C(F)(F)C(F)(F)C(F)(F)C(F)(F)C(F)(F)F [Ammonium perfluorooctanoate (PFOA), Ammonium perfluorooctanoate, reference compound]"
measured_number = 47401.2

[[record]]
molecule = "Cc1ccc(S(=O)(=O)OCC(F)(F)C(F)(F)C(F)(F)C(F)(F)C(F)(F)C(F)F)cc1"
measured_number = 4187106

[[record]]
molecule = "OCC(F)(F)OC(F)(F)C(F)(F)OC(F)(F)CO"
measured_number = 1179763

[[record]]
molecule = "NC(=O)C(F)(F)C(F)(F)F [Pentafluoropropionamide]"
measured_number = 0


Per the records, this molecule ( NC(=O)C(F)(F)C(F)(F)C(F)(F)C(F)(F)F [Nonafluoropentanamide] ) has CLint equal to 4569125

For reference, reported CLint for OCC(F)(F)OC(F)(F)C(F)(F)OC(F)(F)C(F)(F)OC(F)(F)CO stands at 3498911

* * *

hepatocyte CLint at 1 μM overview
assay: Hepatic metabolic stability (hepatocyte clearance) assay, substrate depletion; type: in vitro ADME, human; conditions: both sexes, human, hepatocytes, background-subtracted; read-out: Bkgd-Sub Clearance (µL/min/106 hepatocytes)
Numbers only; they are read as µL/min/1e6 cells.

Use the examples below as a reference point.
[[record]]
compound = "OCC(F)(F)C(F)(F)C(F)(F)C(F)(F)C(F)(F)C(F)(F)C(F)(F)C(F)(F)CO [1H,1H,10H,10H-Perfluorodecane-1,10-diol]"
measured_number = 56.6

[[record]]
compound = "Cc1ccc(S(=O)(=O)OCC(F)(F)C(F)(F)C(F)(F)C(F)(F)C(F)(F)C(F)F)cc1"
measured_number = 23.9

[[record]]
compound = "OCC(F)(F)C(F)(F)C(F)(F)C(F)(F)C(F)(F)C(F)(F)CO"
measured_number = 20


# hepatocyte CLint at 1 μM of NC(=O)C(F)(F)C(F)(F)C(F)(F)C(F)(F)C(N)=O [Octafluoroadipamide] = 2.95

get_value(item= NC(=O)C(F)(F)C(F)(F)C(F)(F)C(F)(F)F [Nonafluoropentanamide] , readout=hepatocyte CLint at 1 μM) returns 26

For record OCCC(F)(F)C(F)(F)C(F)(F)C(F)(F)F the listed hepatocyte CLint at 1 μM is 37.7

Field hepatocyte CLint at 1 μM (entry NC(=O)C(F)(F)C(F)(F)C(F)(F)F [Heptafluorobutyramide] ) reads 19.9

* * *

test system: human plasma; experiment: Ultracentrifugation (UC) plasma protein binding assay, fraction unbound in plasma (fup); settings: amount measured in aqueous fraction after ultracentrifugation, run average, unit not given
quantity_kind: Aqueous Fraction, Run-specific Avg
Answer with a number only.

Recorded Aqueous Fraction, Run-specific Avg, per entry:
[[record]]
compound = "FC(F)(F)C(F)(F)CNCC(F)(F)C(F)(F)F"
target_or_test_system = "human plasma"
quantity_kind = "Aqueous Fraction, Run-specific Avg"
measured_number = 465.75

[[record]]
compound = "FC(F)(F)C(F)(F)C(F)(F)C(F)(F)CCI [1H,1H,2H,2H-Perfluorohexyl iodide]"
target_or_test_system = "human plasma"
quantity_kind = "Aqueous Fraction, Run-specific Avg"
measured_number = 291.61

[[record]]
compound = "OCCCCC(F)(F)C(F)(F)C(F)(F)C(F)(F)F"
target_or_test_system = "human plasma"
quantity_kind = "Aqueous Fraction, Run-specific Avg"
measured_number = 545.49

[[record]]
compound = "NCC(F)(F)C(F)(F)C(F)(F)C(F)(F)C(F)(F)C(F)(F)C(F)(F)F"
target_or_test_system = "human plasma"
quantity_kind = "Aqueous Fraction, Run-specific Avg"
measured_number = 240.90


Measured Aqueous Fraction, Run-specific Avg of FC(F)(I)C(F)(F)C(F)(F)C(F)(F)I : 5.08

Value of Aqueous Fraction, Run-specific Avg reported for the compound OCCC(F)(F)C(F)(F)C(F)(F)C(F)(F)F is 2164.31

Field Aqueous Fraction, Run-specific Avg (entry NCC(F)(F)C(F)(F)C(F)(F)C(F)(F)C(F)(F)C(F)(F)F ) reads 503.26

Aqueous Fraction, Run-specific Avg recorded for this compound, FC(F)(I)C(F)(F)C(F)(F)C(F)(F)C(F)(F)C(F)(F)I , is 144.53

* * *

tested on: human plasma; assay: Chemical stability in plasma over the UC assay time course (T5hr/T1hr); conditions: mean over all UC runs and replicates, human plasma
quantity_kind: Mean Stability (T5hr/T1hr)
Form rule: numeric answer, no unit written next to it.

Solved cases (2 shown):
[[record]]
molecule = "NC(=O)C(F)(F)C(F)(F)C(F)(F)C(F)(F)F [Nonafluoropentanamide]"
measured_number = 0.975

[[record]]
molecule = "Cc1ccc([N+](=O)[O-])cc1 [4-Nitrotoluene, 4-nitrotoluene, reference compound]"
measured_number = 0.816


Mean Stability (T5hr/T1hr) measured on NC(=O)C(F)(F)C(F)(F)C(F)(F)C(F)(F)C(N)=O [Octafluoroadipamide] = 0.977

# molecule NC(=O)C(F)(F)C(F)(F)C(F)(F)F [Heptafluorobutyramide] ; its Mean Stability (T5hr/T1hr) = 0.963

Memo: NC(=O)C(F)(F)C(F)(F)C(F)(F)C(F)(F)C(F)(F)C(F)(F)C(F)(F)F [Perfluorooctanamide] , reported Mean Stability (T5hr/T1hr): 0.838

* * *

tested on: human plasma; test: Ultracentrifugation (UC) plasma protein binding assay, fraction unbound in plasma (fup); details: point estimate of fraction unbound in plasma, UC assay Level4
Field: label. Allowed values: true (1) (Fup.point < 0.06) or false (0) (Fup.point >= 0.06).

Example cases with answers are listed next.
[[record]]
compound = "OCC(F)(F)C(F)(F)C(F)(F)C(F)(F)C(F)(F)C(F)(F)F"
group = "true (1)"

[[record]]
compound = "OCC(F)(F)C(F)(F)C(F)(F)C(F)(F)C(F)(F)C(F)(F)CO"
group = "true (1)"

[[record]]
compound = "C=C(C)C(=O)OCCC(F)(F)C(F)(F)C(F)(F)C(F)(F)C(F)(F)C(F)(F)F [6:2 Fluorotelomer methacrylate]"
group = "false (0)"

[[record]]
compound = "NCC(F)(F)C(F)(F)C(F)(F)C(F)(F)C(F)(F)C(F)(F)F"
group = "false (0)"

[[record]]
compound = "NC(=O)C(F)(F)C(F)(F)C(F)(F)F [Heptafluorobutyramide]"
group = "false (0)"


Here is the next item to consider.
Query string: # check: Fup.point < 0.06 for OCC(F)(F)C(F)(F)C(F)(F)C(F)F
Result string: false (0)
